Some molecules, each annotated with its measured Plant response rating, Kochia.
Tested on: Kochia (Kochia scoparia)
procedure_text: Test A preemergence
Type: in vivo
condition_summary: 125 g ai/ha, preemergence; 0 to 100 scale (0 no effect, 100 complete control)
endpoint: Plant response rating, Kochia

molecule="O=C1NCC(c2cccc(F)c2)C1C(=O)Nc1ccccc1C(F)(F)F (racemic)" endpoint="Plant response rating, Kochia" numeric_readout=0
molecule="CS(=O)(=O)c1ccccc1NC(=O)C1C(=O)NCC1c1ccc(Br)cc1 (stereo not shown)" endpoint="Plant response rating, Kochia" numeric_readout=60
molecule="COc1cccc(NC(=O)C2C(=O)NCC2c2cccc(OC(F)F)c2)c1F (stereo not shown)" endpoint="Plant response rating, Kochia" numeric_readout=0
molecule="CC(C)c1ccc(C2CNC(=O)C2C(=O)Nc2ccccc2F)cc1 (stereo not shown)" endpoint="Plant response rating, Kochia" numeric_readout=0

###

Below, each entry is listed alongside its reported Foxtail, Giant plant response rating.
Test system: giant foxtail (Setaria faberii)
procedure_text: Test A postemergence
Assay type: in vivo
condition_summary: 125 g ai/ha, postemergence; visual injury rating on 0 to 100 scale (0 no effect, 100 complete control), approx. 10 d
endpoint: Foxtail, Giant plant response rating

molecule="O=C(Nc1cccc(F)c1F)C1C(=O)N(CC=CBr)CC1c1cccc(C(F)(F)F)c1 (stereo not shown)" numeric_readout=0
molecule="CN1CC(c2ccc(F)cc2)C(C(=O)Nc2ccccc2F)C1=O (stereo not shown)" numeric_readout=90
molecule="Cc1cc(C2CNC(=O)C2C(=O)Nc2cccc(F)c2F)ccc1F (stereo not shown)" numeric_readout=50
molecule="Cc1cc(C2CN(C)C(=O)C2C(=O)Nc2ccccc2F)ccc1F (stereo not shown)" numeric_readout=90
molecule="CN1CC(c2cccc(OC(F)(F)C(F)F)c2)C(C(=O)Nc2ccccc2C(F)(F)F)C1=O (stereo not shown)" numeric_readout=80
molecule="O=C1NCC(c2c(F)cccc2F)C1C(=O)Nc1cccc(F)c1F (racemic)" numeric_readout=0
molecule="O=C(Nc1ccccc1F)C1C(=O)N(c2ccccc2)CC1c1cccc(C(F)(F)F)c1 (stereo not shown)" numeric_readout=0
molecule="COc1cccc(NC(=O)C2C(=O)NCC2c2ccc(F)c(F)c2)c1F (stereo not shown)" numeric_readout=0
molecule="Cc1cc(C2CN(C)C(=O)C2C(=O)Nc2cccc(F)c2F)ccc1F (stereo not shown)" numeric_readout=90
molecule="Cc1cc(NC(=O)C2C(=O)NCC2c2ccc(F)c(F)c2)ccc1C(F)(F)F (stereo not shown)" numeric_readout=0
molecule="CN1CC(c2cccc(OC(F)(F)C(F)F)c2)C(C(=O)Nc2ccc(F)c(F)c2F)C1=O (stereo not shown)" numeric_readout=90
molecule="C=C(C)CN1CC(c2cccc(C(F)(F)F)c2)C(C(=O)Nc2ccccc2F)C1=O (stereo not shown)" numeric_readout=0
molecule="O=C1NCC(c2ccc(F)c(F)c2)C1C(=O)Nc1ccc(Cl)cc1F (stereo not shown)" numeric_readout=0
molecule="CC(=O)Oc1cccc(C2CNC(=O)C2C(=O)Nc2cccc(F)c2F)c1 (stereo not shown)" numeric_readout=40
molecule="O=C1NCC(c2cc(F)cc(C(F)(F)F)c2)C1C(=O)Nc1cccc(F)c1F (stereo not shown)" numeric_readout=90
molecule="CC(C)c1ccc(C2CNC(=O)C2C(=O)Nc2ccccc2S(C)(=O)=O)cc1 (racemic)" numeric_readout=0

###

Tested on: barnyardgrass (Echinochloa crus-galli)
procedure_text: Test A postemergence
Assay type: in vivo
condition_summary: Echinochloa crus-galli, post-emergence, 240 h, 500 g ai/ha, postemergence; 0 to 100 scale, 0 is no effect, 100 is complete control; read-out: Barnyardgrass plant response rating
Excerpt: […]
endpoint: pest or weed control at 500 g/ha (%)

molecule="CN1C[C@H](c2cc(C(F)F)cs2)[C@@H](C(=O)Nc2cccc(F)c2F)C1=O [Compound 1121]" tested_target="barnyardgrass (Echinochloa crus-galli)" endpoint="pest or weed control at 500 g/ha" unit_label=% numeric_readout=90
molecule="O=C1NC[C@H](c2cccc(I)c2)[C@H]1C(=O)Nc1ccccc1F [Compound 1160]" tested_target="barnyardgrass (Echinochloa crus-galli)" endpoint="pest or weed control at 500 g/ha" unit_label=% numeric_readout=90
molecule="CC(C)=CC1CNC(=O)C1C(=O)Nc1ccccc1S(C)(=O)=O (stereo not drawn) [Compound 1057]" tested_target="barnyardgrass (Echinochloa crus-galli)" endpoint="pest or weed control at 500 g/ha" unit_label=% numeric_readout=0
